Measured Percentage of toxin crossing the Caco-2 cell monolayers by item
# Test system: Caco-2 cell monolayers
# RUN_DESCRIPTION: Toxin crossing and apparent permeability across Caco-2 cell monolayers (A to B), LC-MS/MS
# Assay type: in vitro ADME, human
# STUDY_CONDITIONS: 2 h, loaded 8 ng/mL, A to B, relative to quantified T0
// note: answer is a bare numeric in %

• C=C1CCCC2=NCC(C)C(C)CC23CCC(C2CCC(=O)O2)=CC3C2OC3(CC(C)CC2O3)CC2OC3(CCC4(OC(CCC4(C)O)C1)O3)CC(C)C2O (stereo not drawn) [PnTX-F] = 14.43
• C=C1CCCC2=NCC(C)C(C)CC23CCC(C(=O)O)=CC3C2OC3(CC4CCCC5(CCC6(OC(CCC6(C)O)C1)O5)O4)CC(C)C(O)C2O3 (stereo not drawn) [PnTX-A] = 2.35
• C=CC1=CC2C3OC4(CC5CCCC6(CCC7(OC(CCC7(C)O)CC(=C)CCCC7=NCC(C)C(C)CC72CC1)O6)O5)CC(C)C(O)C3O4 (stereo not drawn) [PnTX-G, Pinnatoxin G] = 15.62
• C=CC1=CC2C3O[C@]4(CCC(O4)[C@@H](C)C[C@@H](O)C3=O)C[C@H](O)C3=NCC[C@@]32CC1 (stereo partly drawn) [Portimine, portimine] = 9.23

Then this compound:
# query: Percentage of toxin crossing the Caco-2 cell monolayers of entry C=CC1=CC2C3OC4(CC(C)CC3O4)CC3OC4(CCC5(OC(CCC5(C)O)CC(=C)CCCC5=NCC(C)C(C)CC52CC1)O4)CC(C)C3O (stereo not drawn) [PnTX-H, Pinnatoxin H] 31.52

---

# Tested on: Caco-2 cell monolayers
# RUN_DESCRIPTION: Toxin crossing and apparent permeability across Caco-2 cell monolayers (A to B), LC-MS/MS
# Format: in vitro ADME, human
# STUDY_CONDITIONS: 6 h, 16 ng/mL, relative to theoretical loaded concentration
# Procedure: All experiments were performed with human intestinal Caco-2 cells (ATCC-HTB37), acquired from the American Type Culture Collection (ATCC; Manassas, VA, USA). Caco-2 cells originate from a colorectal adenocarcinoma, but upon reaching confluence, they differentiate and express the characteristics of enterocytes. […] The LC-MS/MS analysis of toxins was implemented for the quantitative analysis of toxins. […]
PARAMETER_MEASURED: % theoretical amount of toxin crossing the Caco-2 cell monolayers (%)
// note: answer is a bare numeric in %

Example compounds with recorded % theoretical amount of toxin crossing the Caco-2 cell monolayers:
• C=C1CCCC2=NCC(C)C(C)CC23CCC(C2CCC(=O)O2)=CC3C2OC3(CC(C)CC2O3)CC2OC3(CCC4(OC(CCC4(C)O)C1)O3)CC(C)C2O (stereo not drawn) = 7.44
• C=CC1=CC2C3OC4(CC(C)CC3O4)CC3OC4(CCC5(OC(CCC5(C)O)CC(=C)CCCC5=NCC(C)C(C)CC52CC1)O4)CC(C)C3O (stereo not drawn) = 7.10

Then this compound:
# query: % theoretical amount of toxin crossing the Caco-2 cell monolayers of entry C=CC1=CC2C3OC4(CC5CCCC6(CCC7(OC(CCC7(C)O)CC(=C)CCCC7=NCC(C)C(C)CC72CC1)O6)O5)CC(C)C(O)C3O4 (stereo not drawn) 13.25

---

# System: Caco-2 cell monolayers
# RUN_DESCRIPTION: Toxin crossing and apparent permeability across Caco-2 cell monolayers (A to B), LC-MS/MS
# Type: in vitro ADME, human
# STUDY_CONDITIONS: 6 h, loaded 8 ng/mL, A to B, relative to quantified T0
Measured Percentage of toxin crossing the Caco-2 cell monolayers by item
// note: answer is a bare numeric in %

• C=C1CCCC2=NCC(C)C(C)CC23CCC(C2CCC(=O)O2)=CC3C2OC3(CC(C)CC2O3)CC2OC3(CCC4(OC(CCC4(C)O)C1)O3)CC(C)C2O (stereo not drawn) = 26.00

# query: Percentage of toxin crossing the Caco-2 cell monolayers of entry C=CC1=CC2C3OC4(CC(C)CC3O4)CC3OC4(CCC5(OC(CCC5(C)O)CC(=C)CCCC5=NCC(C)C(C)CC52CC1)O4)CC(C)C3O (stereo not drawn) 58.06

# query: Percentage of toxin crossing the Caco-2 cell monolayers of entry C=CC1=CC2C3OC4(CC5CCCC6(CCC7(OC(CCC7(C)O)CC(=C)CCCC7=NCC(C)C(C)CC72CC1)O6)O5)CC(C)C(O)C3O4 (stereo not drawn) 34.43
